Every entry's value here was drawn from the supplement of paper PMC10567573.

B1: SLC22A15 (parent)
chain: IAQYALLGYFIRSWRTLAILVNLQ

# Variants of: B1
# Assay Method Text: protein stability index of a GFP-peptide fusion (GPS, HEK-293T) (PSI 1-6); higher = more stable;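 note: lentivirally expressed fusions sorted by FACS into six bins by GFP to DsRed ratio, PSI derived from sequencing read proportions per bin multiplied by bin number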
# Test Settings: c terminus: a fixed tail appended
Give protein stability index for every item shown.
Give bare numbers.

Record protein stability index for all entries; do not skip any.
1. I19Y
2. L23A
3. I19F
4. L20R
5. V21A

Response:
3.28
2.65
2.53
3.09
2.78

Record protein stability index for all entries; do not skip any.
1. S13W
2. L17E
3. F10T
4. V21C
5. Y4F
6. L23N
7. Y9W
8. L20M

Response:
1: 2.3; 2: 3.59; 3: 4.13; 4: 2.52; 5: 3.81; 6: 3.06; 7: 2.92; 8: 3.89
